Biological target: Luciferin 4-monooxygenase (Photinus pyralis)
Assay: qHTS profiling assay for firefly luciferase inhibitor/activator using purifed enzyme and Km concentrations of substrates (counterscreen for miR-21 project); note: nearly all actives have a fitted effect of over 55% in size
Conditions: purified FLuc, luminescence inhibition; series mostly up to 57.5 µM
Among all 360,000 compounds or so, about 25,000 (6.9%) were called active. Not shown: some 9% with an inconclusive outcome. Calls come from the whole dose curve; as a rule, active = well fitted inhibition curve with a large enough effect; inconclusive = small, poorly fitted or top-dose-only effect; inactive = flat fitted curve, though single readings scatter. This is one part of a sample in which actives are shown more often than they occur.
Outcomes: 1 (yes) for active, 0 (no) for inactive

> print(dat)
                                    compound  discrete.label
 1  Cc1cc(/C=C2/C(=N)N3C(=NC2=O)SN=C3S(C)(=O)=O)c(C)n1-c1ccccc1         1 (yes)
 2       Oc1ccccc1-c1cc(-c2ccc(Cl)cc2)n[nH]1         1 (yes)
 3  COc1cc(C(=O)N(Cc2ccc(C(C)C)cc2)C2CCS(=O)(=O)C2)cc(OC)c1OC (configuration not stated)          0 (no)
 4  O=C(/C=C/c1cccc([N+](=O)[O-])c1)OCC(=O)N1CCOCC1          0 (no)
 5     O=C(NCc1ccccc1)c1ccc2c(c1)nc1n2CCCCC1         1 (yes)
 6  Cc1ccc(CCNC(=O)c2ccc3c(c2)nc2n3CCC(C)C2)cc1 (configuration not stated)          0 (no)
 7  CC1=CC2=NC(=O)/C(=C/c3coc4ccccc4c3=O)C(=N)N2O1          0 (no)
 8  CCOc1cc(/C=C2\C(=N)N3N=C(C)SC3=NC2=O)ccc1OCCOc1ccccc1          0 (no)
 9  CC(C)(C)[Si](OCC[C@@H]1C[C@@]1(C)[C@@H](NP(=O)(c1ccccc1)c1ccccc1)c1ccccc1)(c1ccccc1)c1ccccc1          0 (no)
10      CSc1ccc(NC(=O)Cn2nnnc2-c2ccccc2F)cc1          0 (no)
11  Cc1cc(C)cc(NC(=O)CN2C(=O)c3ccccc3C2=O)c1          0 (no)
12         CCc1c(C)sc(NC(=O)c2cccs2)c1C(N)=O         1 (yes)
13  CCC1=NN2C(=N)/C(=C/c3cc(C)n(-c4ccccc4)c3C)C(=O)N=C2S1         1 (yes)
14  CCS(=O)(=O)C1=NSC2=NC(=O)/C(=C\c3ccc(OS(=O)(=O)c4ccccc4)cc3)C(=N)N21          0 (no)
15  CCOc1ccc(OCC)c(NC(=O)c2c(C)nn(-c3ccccc3)c2-n2cccc2)c1          0 (no)
16  COc1ccc(CNC(=O)COc2ccccc2C(=O)c2cnn(-c3ccccc3)c2)cc1OC         1 (yes)
17                 CN(C)c1nnnn1-c1ccc(Cl)cc1          0 (no)
18  CC(=O)c1ccc(N2CCN(C(=O)c3ccc(Cl)c(S(=O)(=O)NC4CC4)c3)CC2)c(F)c1          0 (no)
19  Cc1cc(C(=O)Nc2ccc(C)c(S(=O)(=O)N3CCOCC3)c2)c2ccccc2n1          0 (no)
20  Cc1ccc(NC(=O)CCC(=O)N/N=C/c2ccco2)c(C)c1          0 (no)
21        O=C(NCCCO)c1nn(-c2ccc(Cl)cc2)nc1CO          0 (no)
22  CC(C)Sc1oc(-c2cccs2)nc1S(=O)(=O)c1ccc(Cl)cc1          0 (no)
